- System: Mycobacterium tuberculosis
- assay: Antitubercular activity against Mycobacterium tuberculosis measured after 48 hrs by luminescence based serial dilution method
- Type: functional
For each entry below, report its MIC value.
# unit: µM | format: bare number

Entry under test: `O=C(CN1C(=O)/C(=C\c2ccc(Cl)cc2)SC1=S)c1ccccc1` . Its MIC was 48.2

The molecule listed as `COc1ccccc1/C=C1/SC(=S)N(CC(=O)c2ccccc2)C1=O` shows MIC equal to 30.4

Noted for `Cc1ccc(/C=C2/SC(=S)N(CC(=O)c3ccccc3)C2=O)cc1` : its MIC reads 15.1

So, `O=C(CN1C(=O)/C(=C\c2ccc([N+](=O)[O-])cc2)SC1=S)c1ccccc1` ? Its MIC was 36.5

====

- assay: Cytotoxicity against HEK293 cells after 48 hrs by MTT assay
- Format: cell-based
- appliedConditions: human, read-out: MIC
For each of the compounds below, state its MCC at 48 h.
Your answer is read as µM, so omit the unit and give the number.

Sample `COc1ccc(C(=O)CN2C(=O)/C(=C\c3ccc(C)cc3)SC2=S)cc1` ; MCC at 48 h observed: 195

MCC at 48 h reading for NNC(=O)c1ccncc1 [ISONIAZID] : 120

Data point: Oc1cc(Cl)ccc1Oc1ccc(Cl)cc1Cl [TRICLOSAN] ; MCC at 48 h = 20.5

According to the records, this compound `COc1ccc(/C=C2/SC(=S)N(CC(=O)c3ccccc3)C2=O)cc1` displays MCC at 48 h of 167

====

Please go through the items and note down their MIC.
- Test system: Mycobacterium tuberculosis
- assay: Antitubercular activity against Mycobacterium tuberculosis measured after 48 hrs by luminescence based serial dilution method
- Type: functional
The figure you give is taken to be in µM; do not add the unit.

Given the molecule `COc1cccc(/C=C2/SC(=S)N(CC(=O)c3ccccc3)C2=O)c1` and test system Mycobacterium tuberculosis, the measured MIC is 20.5

// MIC (Mycobacterium tuberculosis) for `COc1ccc(C(=O)CN2C(=O)/C(=C\c3ccccc3OC)SC2=S)cc1` = 9.27

The molecule `COc1ccc(C(=O)CN2C(=O)/C(=C\c3ccc(Cl)cc3)SC2=S)cc1` on Mycobacterium tuberculosis: MIC was 8.62

Bench note, Mycobacterium tuberculosis: `CC(=O)Nc1ccc(/C=C2/SC(=S)N(CC(=O)c3ccccc3)C2=O)cc1` , MIC reads 3.18

Per the reported Mycobacterium tuberculosis data, `Oc1cc(Cl)ccc1Oc1ccc(Cl)cc1Cl` has MIC of 8.65

MIC on Mycobacterium tuberculosis for `O=C(CN1C(=O)/C(=C\c2ccccc2Cl)SC1=S)c1ccccc1` is 25.5

Sample `O=C(CN1C(=O)/C(=C\c2ccc(F)cc2)SC1=S)c1ccccc1` , system: Mycobacterium tuberculosis. Its MIC is 57.4

Field MIC (system: Mycobacterium tuberculosis) for entry `COc1ccc(/C=C2/SC(=S)N(CC(=O)c3ccccc3)C2=O)cc1` = 2.95

Lab entry: Mycobacterium tuberculosis assay, molecule `COc1ccc(C(=O)CN2C(=O)/C(=C\c3ccccc3Cl)SC2=S)cc1` , MIC = 7.83

Field MIC (Mycobacterium tuberculosis), entry `COc1ccc(C(=O)CN2C(=O)/C(=C\c3ccc(F)cc3)SC2=S)cc1` : 17.8

Result for `COc1cc(/C=C2/SC(=S)N(CC(=O)c3ccccc3)C2=O)cc(OC)c1OC` , tested on Mycobacterium tuberculosis, MIC: 0.38

Known value: Mycobacterium tuberculosis MIC of the molecule `O=C(CN1C(=O)/C(=C\c2ccc(Br)cc2)SC1=S)c1ccccc1` equals 21.1

For `CN(C)c1ccc(/C=C2/SC(=S)N(CC(=O)c3ccccc3)C2=O)cc1` on Mycobacterium tuberculosis, measured MIC was 12.6

Measured MIC (Mycobacterium tuberculosis), entry `COc1ccc(C(=O)CN2C(=O)/C(=C\c3ccc(C)cc3)SC2=S)cc1` : 0.49

Here `COc1ccc(C(=O)CN2C(=O)/C(=C\c3cccc(Cl)c3)SC2=S)cc1` was tested on Mycobacterium tuberculosis, and its MIC came to 2.02

MIC of `O=C(CN1C(=O)/C(=C\c2ccc(O)cc2)SC1=S)c1ccccc1` , assay on Mycobacterium tuberculosis, is 33.1

Considering `NNC(=O)c1ccncc1` , its MIC with Mycobacterium tuberculosis was recorded as 0.58

# MIC measured on Mycobacterium tuberculosis for item `COc1ccc(C(=O)CN2C(=O)/C(=C\c3ccc(Br)cc3)SC2=S)cc1` = 4.04

`O=C(CN1C(=O)/C(=C\c2ccccc2)SC1=S)c1ccccc1` tested on Mycobacterium tuberculosis gave MIC: 32.3

# value of MIC, Mycobacterium tuberculosis, item `COc1ccc(C(=O)CN2C(=O)/C(=C\c3cc(OC)c(OC)c(OC)c3)SC2=S)cc1` = 0.29

// assay Mycobacterium tuberculosis, entry `O=C(CN1C(=O)/C(=C\c2cccc(Cl)c2)SC1=S)c1ccccc1` , MIC value = 40.9

====

- experimentalSystem: UniProt P9WGR1
- Sequence (P9WGR1 whole entry): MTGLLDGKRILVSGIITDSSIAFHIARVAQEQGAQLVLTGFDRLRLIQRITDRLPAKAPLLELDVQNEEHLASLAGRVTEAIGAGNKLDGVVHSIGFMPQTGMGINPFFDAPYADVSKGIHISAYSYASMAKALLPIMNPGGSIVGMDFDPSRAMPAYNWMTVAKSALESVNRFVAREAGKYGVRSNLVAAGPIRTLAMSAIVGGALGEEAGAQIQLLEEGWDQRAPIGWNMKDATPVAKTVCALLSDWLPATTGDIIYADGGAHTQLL
- assay: Inhibition of recombinant Mycobacterium tuberculosis InhA expressed in Escherichia coli […] pLysS using trans-2-decenoyl-N-acetylcysteamine as substrate by spectrophotometric method
observedProperty: pIC50
Interpret pIC50 as the negative base-10 log of the concentration measured in mol/L.

Noted for `O=C(CN1C(=O)/C(=C\c2ccc(Br)cc2)SC1=S)c1ccccc1` : its pIC50 reads 4.62

Short answer for `NNC(=O)c1ccncc1` : pIC50 was 5.08

Entry `COc1ccc(C(=O)CN2C(=O)/C(=C\c3cccc(Cl)c3)SC2=S)cc1` — recorded pIC50 = 5.11

Memo: `O=C(CN1C(=O)/C(=C\c2ccc(Cl)cc2)SC1=S)c1ccccc1` , reported pIC50: 4.30

Value of measured pIC50 for the entry `COc1cccc(/C=C2/SC(=S)N(CC(=O)c3ccccc3)C2=O)c1` : 4.65

So for `COc1ccc(C(=O)CN2C(=O)/C(=C\c3ccccc3Cl)SC2=S)cc1` , the logged pIC50 turned out to be 4.82

Data point: `COc1ccc(C(=O)CN2C(=O)/C(=C\c3ccc(F)cc3)SC2=S)cc1` ; pIC50 = 4.70

Form: compound = `O=C(CN1C(=O)/C(=C\c2cccc(Cl)c2)SC1=S)c1ccccc1` ; pIC50 = 4.33

Record `CC(=O)Nc1ccc(/C=C2/SC(=S)N(CC(=O)c3ccccc3)C2=O)cc1` . Reported pIC50: 4.94

The compound listed as `O=C(CN1C(=O)/C(=C\c2ccc([N+](=O)[O-])cc2)SC1=S)c1ccccc1` shows pIC50 equal to 4.36

====

Kindly supply the reported IC50 values for the records listed here.
- experimentalSystem: 3-oxoacyl-[acyl-carrier-protein] synthase 3 (Escherichia coli)
- Sequence (C3TDZ2 whole entry): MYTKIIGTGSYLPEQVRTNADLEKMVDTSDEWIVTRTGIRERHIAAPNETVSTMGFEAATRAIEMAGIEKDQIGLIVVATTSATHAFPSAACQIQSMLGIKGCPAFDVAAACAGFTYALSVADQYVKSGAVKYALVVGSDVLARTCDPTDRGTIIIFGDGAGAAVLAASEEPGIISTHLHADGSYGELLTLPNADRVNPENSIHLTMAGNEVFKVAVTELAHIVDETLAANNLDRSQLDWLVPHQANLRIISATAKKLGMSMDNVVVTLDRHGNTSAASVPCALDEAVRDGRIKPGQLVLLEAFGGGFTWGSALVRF
Quick reminder: number only, in µM, skip the unit.

Noted for `COc1ccc(C(=O)CN2C(=O)/C(=C\c3cc(OC)c(OC)c(OC)c3)SC2=S)cc1` : its IC50 reads 900

# compound `Oc1cc(Cl)ccc1Oc1ccc(Cl)cc1Cl` ; its IC50 = 850

Recorded IC50 (compound `COc1cc(/C=C2/SC(=S)N(CC(=O)c3ccccc3)C2=O)cc(OC)c1OC` ): 780

====

Record form. Attribute: log10 of MIC. Fill in for each entry.
- Test system: Staphylococcus aureus
- assay: Antimicrobial activity against […] Staphylococcus aureus ATCC 29213 measured after 48 hrs
- Type: functional
- appliedConditions: ATCC 29213, 48 h
Remember, log10 of MIC, in µM.

Input `COc1ccc(C(=O)CN2C(=O)/C(=C\c3cccc(Cl)c3)SC2=S)cc1` . Output log10 of MIC: 0.59

Entry under test: `NNC(=O)c1ccncc1` . Its log10 of MIC was 0.15

Measured log10 of MIC of `Oc1cc(Cl)ccc1Oc1ccc(Cl)cc1Cl` : -0.17

The reported value for `COc1cc(/C=C2/SC(=S)N(CC(=O)c3ccccc3)C2=O)cc(OC)c1OC` in terms of log10 of MIC is 0.86

Short answer for `COc1ccc(C(=O)CN2C(=O)/C(=C\c3cc(OC)c(OC)c(OC)c3)SC2=S)cc1` : log10 of MIC was 0.19

Briefly, log10 of MIC measured for `COc1ccc(/C=C2/SC(=S)N(CC(=O)c3ccccc3)C2=O)cc1` : 0.62

Note to self: log10 of MIC recorded for `COc1ccc(C(=O)CN2C(=O)/C(=C\c3ccc(C)cc3)SC2=S)cc1` was 1.01
